Test: Cytotoxicity against human C32 cells assessed as inhibition of cell proliferation after 4 days by Coulter counter analysis
Assay type: cell-based
recorded.metric: CC50 at 96 h

| smiles.text | readout.value |
| --- | --- |
| Nc1nc2c(ncn2CCOCCP(=O)(O)O)c(=O)[nH]1 | > 300 µM |
| CCOC(=O)[C@H](C)NP(=O)(CCOCCn1cnc2c(=O)[nH]c(N)nc21)N[C@@H](C)C(=O)OCC | > 300 µM |
| CCOC(=O)[C@H](Cc1ccccc1)NP(=O)(COCC(COCP(=O)(N[C@@H](Cc1ccccc1)C(=O)OCC)N[C@@H](Cc1ccccc1)C(=O)OCC)Cn1cnc2c(=O)[nH]cnc21)N[C@@H](Cc1ccccc1)C(=O)OCC | 41 µM |
| CCOC(=O)[C@H](Cc1ccccc1)NP(=O)(COCC(COCP(=O)(N[C@@H](Cc1ccccc1)C(=O)OCC)N[C@@H](Cc1ccccc1)C(=O)OCC)Cn1cnc2c(=O)[nH]c(N)nc21)N[C@@H](Cc1ccccc1)C(=O)OCC | 130 µM |
| CCCCCCCCCCCCCCCCOCCCOP(=O)(CCOCCn1cnc2c(=O)[nH]c(N)nc21)OCCCOCCCCCCCCCCCCCCCC | > 300 µM |
| Nc1nc2c(ncn2CC(COCP(=O)(O)O)COCP(=O)(O)O)c(=O)[nH]1 | > 300 µM |
| CCCCCCCCCCCCCCCCOCCCOP(=O)(O)CCOCCn1cnc2c(=O)[nH]c(N)nc21 | 61 µM |

----------
Entries and their pKi values follow.
Target: Hypoxanthine-guanine phosphoribosyltransferase (Homo sapiens)
Sequence (P00492 whole entry): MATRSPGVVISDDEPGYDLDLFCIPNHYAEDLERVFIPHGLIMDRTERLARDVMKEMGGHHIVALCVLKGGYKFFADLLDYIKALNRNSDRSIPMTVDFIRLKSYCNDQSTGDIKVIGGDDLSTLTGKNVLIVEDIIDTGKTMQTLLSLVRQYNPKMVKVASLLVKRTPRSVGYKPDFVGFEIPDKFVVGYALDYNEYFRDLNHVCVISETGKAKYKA
Test: Inhibition of human N-terminal hexahistidine-tagged HGPRT
pKi: −log10 of the molar value.

| compound | pKi |
| --- | --- |
| O=c1[nH]cnc2c1ncn2CC(COCP(=O)(O)O)COCP(=O)(O)O | 6.00 |
| Nc1nc2c(ncn2CC(COCP(=O)(O)O)COCP(=O)(O)O)c(=O)[nH]1 | 7.52 |
| Nc1nc2c(ncn2C(COCP(=O)(O)O)COCP(=O)(O)O)c(=O)[nH]1 | 4.43 |
| Nc1nc2c(ncn2CC(COCCP(=O)(O)O)OCCP(=O)(O)O)c(=O)[nH]1 (centres undefined) | 6.22 |

----------
Assay: Cytotoxicity against thioguanine-resistant human C32TG cells harboring HGPRT deletion mutant assessed as inhibition of cell proliferation after 4 days by Coulter counter analysis
Type: cell-based
Entries and their CC50 at 96 h values follow.

| smiles.text | units | censoring.qualifier | CC50 at 96 h |
| --- | --- | --- | --- |
| CCCCCCCCCCCCCCCCOCCCOP(=O)(CCOCCn1cnc2c(=O)[nH]c(N)nc21)OCCCOCCCCCCCCCCCCCCCC | µM | > | 300 |
| CCOC(=O)[C@H](Cc1ccccc1)NP(=O)(COCC(COCP(=O)(N[C@@H](Cc1ccccc1)C(=O)OCC)N[C@@H](Cc1ccccc1)C(=O)OCC)Cn1cnc2c(=O)[nH]c(N)nc21)N[C@@H](Cc1ccccc1)C(=O)OCC | µM | = | 109 |
| CCOC(=O)[C@H](Cc1ccccc1)NP(=O)(COCC(COCP(=O)(N[C@@H](Cc1ccccc1)C(=O)OCC)N[C@@H](Cc1ccccc1)C(=O)OCC)Cn1cnc2c(=O)[nH]cnc21)N[C@@H](Cc1ccccc1)C(=O)OCC | µM | = | 55 |
| CCCCCCCCCCCCCCCCOCCCOP(=O)(O)CCOCCn1cnc2c(=O)[nH]c(N)nc21 | µM | = | 36 |
| Nc1nc2c(ncn2CC(COCP(=O)(O)O)COCP(=O)(O)O)c(=O)[nH]1 | µM | > | 300 |
| Nc1nc2c(ncn2CCOCCP(=O)(O)O)c(=O)[nH]1 | µM | > | 300 |
| CCOC(=O)[C@H](C)NP(=O)(CCOCCn1cnc2c(=O)[nH]c(N)nc21)N[C@@H](C)C(=O)OCC | µM | > | 300 |
